# assayed target: SARS-CoV-2 3CL protease (Severe acute respiratory syndrome coronavirus 2, UniProt P0DTD1)
# Construct: measures the activity of full-length SARS-CoV-2 3CL protease
# experiment description: SARS-CoV-2 Coronavirus 3C Protease FRET Assay
# Format: biochemical
# conditions: Examples 14-78 and 114 (second head of Table 2); Morrison equation fit, 15 nM enzyme, 25 μM peptide substrate; read-out: Geometric Mean Ki (nM) IC50
Using Ki as the sorting value, the categories are lo = under 5 nM, mid = from 5 nM up to 10 nM, hi = 10 nM and over

compound: CC(C)c1cccc(OCC(=O)[C@H](C[C@@H]2CCNC2=O)NC(=O)[C@@H]2[C@@H]3[C@H](CN2C(=O)[C@@H](NC(=O)C(F)(F)F)C(C)C)C3(C)C)c1 [Example 56]
class: hi
//
compound: CC(C)(C)[C@H](NS(=O)(=O)C(F)(F)F)C(=O)N1C[C@H]2[C@@H]([C@H]1C(=O)N[C@@H](C[C@@H]1CCNC1=O)C(=O)COc1ccc(F)c(F)c1)C2(C)C [Example 114]
class: lo
//
compound: CC(C)(C)[C@H](NS(=O)(=O)C(F)(F)F)C(=O)N1C[C@H]2[C@@H]([C@H]1C(=O)N[C@@H](C[C@@H]1CCNC1=O)C(=O)COc1ccc(F)cc1)C2(C)C [Example 29]
class: lo

Hey, which category is CC(C)[C@H](NC(=O)C(F)(F)F)C(=O)N1C[C@H]2[C@@H]([C@H]1C(=O)N[C@@H](C[C@@H]1CCNC1=O)C(=O)COc1ccc(F)cc1)C2(C)C [Example 52] in, do you know?
hi

Hey, which category is CC(C)[C@H](NC(=O)C(F)(F)F)C(=O)N1CC[C@@H](C)C[C@H]1C(=O)N[C@@H](C[C@@H]1CCNC1=O)C(=O)COc1ccc(F)cc1F (relative stereo) [Example 69] in, do you know?
hi

Hey, which category is CC(C)[C@H](NS(C)(=O)=O)C(=O)N1CCC2(CC2)C[C@H]1C(=O)N[C@@H](C[C@@H]1CCNC1=O)C(=O)COc1ccc(F)cc1F (single isomer, unassigned) [Example 59] in, do you know?
mid

Hey, which category is CC(C)[C@H](NC(=O)C(F)(F)F)C(=O)N1C[C@H]2[C@@H]([C@H]1C(=O)N[C@@H](C[C@@H]1CC(=O)NC1=O)C(=O)COc1ccc(F)cc1F)C2(C)C [Example 42] in, do you know?
mid
